- assaySystem: GPR139 (Homo sapiens, UniProt Q6DWJ6)
- Sequence (Q6DWJ6 whole entry): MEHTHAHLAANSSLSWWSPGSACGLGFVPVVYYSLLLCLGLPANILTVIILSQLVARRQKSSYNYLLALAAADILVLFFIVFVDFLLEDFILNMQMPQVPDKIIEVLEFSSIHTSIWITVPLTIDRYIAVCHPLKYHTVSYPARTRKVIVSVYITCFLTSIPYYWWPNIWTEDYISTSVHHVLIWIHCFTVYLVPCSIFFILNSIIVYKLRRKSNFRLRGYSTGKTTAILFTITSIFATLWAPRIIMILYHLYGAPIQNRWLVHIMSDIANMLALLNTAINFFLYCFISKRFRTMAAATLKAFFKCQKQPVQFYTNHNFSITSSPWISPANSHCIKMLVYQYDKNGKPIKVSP
- protocolNotes: GPR139 Agonist titration / agonist counterscreen assay (calcium detection, HEK-GPR139 cells)
- Type: cell-based
- Parameters: expressed in transfected cells; host or cells: HEK Aequorin cells, Maxcyte transient transfection
- measurementContext: GPR139 Agonist Activity; HEK-GPR139 cells; read-out: EC50
pEC50: −log10 of the molar value.
readoutName: pEC50

The cases that follow already have their pEC50 on record.
O=C(C1CC1)N1CCc2cc(S(=O)(=O)NCC3COc4ccccc4O3)ccc21 (centres unmarked) [SR-01000126429] ... 6.00
Cc1c(Cl)c([N+](=O)[O-])nn1CC(=O)NC(C)COc1ccccc1 (centres unmarked) [SR-01000318171] ... 6.18
CC1=NNC(=O)C1CC(=O)N/N=C/c1c(Cl)cccc1Cl (centres unmarked) [SR-01000310664] ... 6.17

I. COc1cc(-c2noc(CCC(=O)Nc3cccc(C)c3C)n2)cc(OC)c1OC [SR-01000139458]
II. COc1ccccc1NC(=O)C(=O)NNC(=O)COc1ccc(Br)cc1C [SR-01000325257]
Two entries are listed, I and II . Which one carries the higher pEC50? Respond with the label that goes with your answer.
I
(I: 6.25, II: 5.64)

====

- assaySystem: GPR139 (Homo sapiens)
- protocolNotes: GPR139 Agonist titration / agonist counterscreen assay (calcium detection, HEK-GPR139 cells)
- Assay type: cell-based
- Parameters: expressed in transfected cells; host or cells: HEK Aequorin cells, Maxcyte transient transfection
- measurementContext: GPR139 Agonist Activity
readoutName: Efficiency Ligand

COc1cccc(CNC(=O)Nc2ccc(-c3ccncc3)cc2)c1.O=C(O)C(F)(F)F ... 0.36
CC(CCC(=O)C12CC3CC(CC(C3)C1)C2)CCc1ccc2ccccc2c1 (stereo not drawn) ... 0.30
O=C(COc1ccc2ccccc2c1)NNC(=O)c1cccc([N+](=O)[O-])c1 ... 0.30
CCCN1C(=O)CCc2cc(NC(=O)NCCc3ccc(OC)cc3)ccc21 ... 0.31
Cc1c(Cl)c([N+](=O)[O-])nn1CC(=O)NC(C)COc1ccccc1 (stereo not drawn) ... 0.36
CC(Oc1ccccc1)C(=O)NCCn1ccc2ccccc21 (stereo not drawn) ... 0.36
COc1ccc2c(c1)C[C@H](C(=O)Nc1ccc(-c3cn[nH]c3)cc1OCC1CNC1)NC2.O=C(O)C(F)(F)F.O=C(O)C(F)(F)F.O=C(O)C(F)(F)F ... 0.29
Cc1c(C=O)c2ccccc2n1CC(=O)NCc1ccccc1 ... 0.37
Cc1cc(NC(=O)Cn2ncc3c2-c2ccccc2OC3)no1 ... 0.35
Cc1ccccc1-c1nnc(CN2CCc3ccccc3C2)o1 ... 0.40
CC(=O)N1CCSc2cc(S(=O)(=O)NC3CCC(C)CC3)ccc21 (stereo not drawn) ... 0.31
O=c1c2c([nH]c3nc(NCc4ccccc4Cl)nn13)CCC2 ... 0.38

====

- Tested on: parental HEK cells
- protocolNotes: HEK parental Agonist Counterscreen Assay (non-transfected cells)
- Assay type: cell-based
- measurementContext: HEK Agonist Activity section
readoutName: Lipophilic Efficiency (logD)

CCOC(=O)c1ccc(NC(=O)Cn2c(C)c(C=O)c3ccccc32)cc1 ... 1.37

A. Nc1ccc2c(C(F)(F)F)cc(=O)oc2c1
B. Cc1ccccc1C(=O)NNC(=O)C(C)Oc1ccc(Cl)cc1Cl (stereo not shown)
C. Cc1ccc(CN2CCN(CC(=O)NCCc3ccc(Cl)cc3)C2=O)c(Cl)c1
Rank entries according to their Lipophilic Efficiency (logD), from the largest number down. Returns: the labels listed in the requested order.
A, C, B
(A: 3.35, C: 1.51, B: 0.98)

1. O=C(Cc1cccc2ccccc12)Nc1nnc(-c2cccs2)o1
2. O=C(Cn1cnc2ccccc21)NCCCn1ccc2ccccc21
3. Cc1ccc(NC(=O)NCCCc2ccccc2)cc1
Arrange the 3 entries by Lipophilic Efficiency (logD) so the values rise. # output: labels, in the requested order
3, 1, 2
(3: 0.78, 1: 1.35, 2: 2.29)

a. COc1cccc(COC(=O)NC(C)C2COc3ccccc3O2)c1 (stereo not shown)
b. Cc1cc(-c2nnc(NC(=O)CCc3ccccc3)o2)n(C)n1
c. Cc1cccc(NC(=S)NNC(=O)CSCc2cccc3ccccc23)c1
Ranking field: Lipophilic Efficiency (logD); order: falling. Output spec: a listing of the labels in the requested order.
b, a, c
(b: 3.19, a: 1.68, c: −0.064)

P. COc1ccc(CC(=O)NNC(=O)C(C)Oc2ccc(Cl)cc2Cl)cc1 (stereo not shown)
Q. O=C(CN1C(=O)NC2(CCc3ccccc3C2)C1=O)N1CCc2ccccc2C1 (stereo not shown)
Dear colleague, could you let me know whether P or Q has the lower recorded Lipophilic Efficiency (logD)? Thanks. Lab log: write the label of the selected item as the result.
P

1. Cc1ccccc1-c1nnc(CN2CCc3ccccc3C2)o1
2. CCC(=O)NNC(=O)C(C)Oc1ccc(Cl)cc1Cl (stereo not shown)
I would appreciate it if you could say which entry, 1 or 2 , has the lower Lipophilic Efficiency (logD) value. When you have decided, please share the label of that item.
1

a. CN(C)c1ccc(NC(=O)Cn2cc(C=O)c3ccccc32)cc1
b. O=C(CSc1ccc(Cl)cc1)Nc1nnc(-c2ccc(F)cc2)o1
Compare reported Lipophilic Efficiency (logD) values for a and b . Which is lower? Please reply using the label of the selected record.
b

A. Cc1ccc(CCNC(=O)Cn2nc(-c3ccccc3)ccc2=O)cc1
B. C=CCC(O)(CC=C)C(C)NC(=O)CCC1(Cc2ccc3ccccc3c2)CCC(=O)N1 (stereo not shown)
Among A and B , which shows a numerically higher Lipophilic Efficiency (logD) result? Return value: the label identifying the chosen record.
A
